# Tested on: MDA-MB-468 breast
# assay.name: NCI-60 one-dose screen, 48 h (100 = growth as untreated, 0 = no growth, -100 = all killed)
# protocol.conditions: 10 µM unless noted
The panel holds about 83,000 compounds, 20% with a hit somewhere; the sample as a whole holds those more often. Activity calls are given as the source filed them. Rule for the calls: active = growth percent below 10; inactive = the rest.
reported.endpoint: growth

Problem: May I ask what growth has been recorded for O=C1/C(=C/c2cc(F)cc(F)c2)Cc2cc(F)cc(F)c21 ?
Solution: 74.1% (inactive)

Problem: Now consider C#CCOc1ccc(C(Nc2ccc(OC)cc2)c2nnnn2C2CCCCC2)cc1 (configuration not stated) .
Solution: 101% (inactive)

Problem: Now consider Cn1c(N)c(N=Nc2ccc(S(=O)(=O)Nc3nccs3)cc2)c(=O)n(C)c1=O .
Solution: 116% (inactive)

Problem: Now consider CCN(CC)c1cc(N)c(Cc2c(N)cc(N(CC)CC)cc2Cl)c(Cl)c1 .
Solution: -15.8% (active)

Problem: Now consider N=C(N)c1ccc(S(N)(=O)=O)cc1 .
Solution: 96.8% (inactive)

Problem: Now consider O=S(=O)(NC1c2ccccc2Oc2ccccc21)c1ccccc1 .
Solution: 87.6% (inactive)

Problem: Now consider COc1ccc(C2NCCc3c2[nH]c2ccccc32)cc1CN1CCN(c2ccc(F)cc2)CC1 (configuration not stated) .
Solution: 49% (inactive)

Problem: Now consider CN1CCN(CCOc2ccc(-c3cnc4c(-c5ccccc5F)cnn4c3)cc2)CC1 .
Solution: 45.6% (inactive)

Problem: Now consider COc1ccc([C@H]2[C@H](O)C(=O)N2c2cc(OC)c(OC)c(OC)c2)cc1Cl .
Solution: 10.9% (inactive)

Problem: Now consider Cc1ccc(C2CC(c3cccc(Nc4ccncc4)c3)=Nc3c(N)nc(N)nc3N2)cc1 (configuration not stated) .
Solution: 60.2% (inactive)

Problem: Now consider Cc1cc(/C=C/c2ccc3cc(N(C)C)ccc3[n+]2C)c(C)n1-c1ccccc1 .
Solution: -81.9% (active)

Problem: Now consider CC(C(C(=O)N1CCCCC1)N1CCCCC1)N1CCCCC1 (configuration not stated) .
Solution: 115% (inactive)

Problem: Now consider COc1cc(Cc2cc(OC)c(O)c(OC)c2)cc(OC)c1O .
Solution: 65.2% (inactive)

Problem: Now consider O=C(CCCCC1CCSS1)Nc1ncnc2n[nH]c(-c3ccc(Oc4ccccc4)cc3)c12 (configuration not stated) .
Solution: 95.9% (inactive)

Problem: Now consider CC[C@@](C)(NC(=O)C(C)(C)NC(=O)[C@@H](NC(=O)[C@@H]1CCCN1C(=O)C(C)(C)NC(=O)[C@H](CC(C)C)NC(=O)CNC(=O)C(C)(C)NC(=O)[C@@H](NC(=O)C(C)(C)NC(=O)[C@H](CCC(N)=O)NC(=O)[C@H](C)NC(=O)C(C)(C)NC(=O)[C@H](C)NC(=O)C(C)(C)NC(=O)[C@H](C)NC(=O)C(C)(C)NC(C)=O)C(C)C)C(C)C)C(=O)N[C@@H](CCC(N)=O)C(=O)N[C@@H](CCC(N)=O)C(=O)N[C@H](CO)CC1CCCCC1 .
Solution: -10.9% [5 µM] (active)

Problem: Now consider O=C1C(c2c(O)[nH]c3ncccc23)=Nc2ccccc21 .
Solution: 42.6% (inactive)

Problem: Now consider COc1cc(C2CC(c3ccc(Nc4ccnc5cc(Cl)ccc45)cc3)=NN2c2ccc(Cl)cc2)cc(OC)c1OC (configuration not stated) .
Solution: 41.9% (inactive)

Problem: Now consider COc1cc2nc(-c3ccc(C(F)(F)F)cc3)cc(OCCCNCC3CCCO3)c2cc1OC (configuration not stated) .
Solution: 14.2% (inactive)

Problem: Now consider CN(C)CC1C(=O)O[C@H]2[C@H]1CC/C(COC(=O)NCc1ccc(Cn3c(=O)sn(CCCI)c3=O)cc1)=C\CC[C@@]1(C)O[C@@H]21 (some centres not stated) .
Solution: -73.3% (active)

Problem: Now consider CCCCCCNC(=O)Oc1ccc(/C(=C(/C)Cc2ccc(OC)cc2)c2ccc(OCCN3CCCCC3)cc2)cc1 .
Solution: 88.6% (inactive)

Problem: Now consider Oc1ccc(C2c3ccccc3Oc3ccccc32)c2cccnc12 .
Solution: 9.14% (active)

Problem: Now consider CN(C)S(=O)(=O)Oc1ccc(-c2sc3cc(OS(=O)(=O)N(C)C)ccc3c2C(=O)c2ccc(OCCN3CCCCC3)cc2)cc1 .
Solution: 61.7% (inactive)

Problem: Now consider O=C(NCc1ccco1)C1CN(c2ccc(Cl)cc2)N(c2ccc(Cl)cc2)C1=O (configuration not stated) .
Solution: 42.4% (inactive)

Problem: Now consider COC(=O)c1c2c(n3ccc(C)cc13)C(=O)c1ccccc1C2=O .
Solution: 86.3% (inactive)

Problem: Now consider Cn1cc(-c2noc(-c3cn(C)c4ncc(F)cc34)n2)c2cc(Cl)ccc21 .
Solution: 52.9% (inactive)

Problem: Now consider CCCNc1nc(SC)nc(-c2cccc(N)c2)c1C#N .
Solution: 114% (inactive)

Problem: Now consider CCCCn1c(=O)c(-c2cc(-c3ccc(Cl)cc3)nc(-c3ccc(Cl)cc3)c2)cc2ccc(Cl)cc21 .
Solution: 95% (inactive)

Problem: Now consider COc1ccc(C2N(c3cc(OC)c(OC)c(OC)c3)C(=O)C2(F)F)cc1F (configuration not stated) .
Solution: 44.5% (inactive)

Problem: Now consider CCN(CC)c1ccc(/C=C\C(=O)c2ccc(NC(C)=O)cc2)cc1 .
Solution: 10.7% (inactive)

Problem: Now consider CCOC(=O)c1cnn(CC(O)c2ccc(F)cc2)c1NC(=O)Nc1ccccc1F (configuration not stated) .
Solution: 85.8% (inactive)

Problem: Now consider C[C@@H](C[C@H](CCO)c1cc(C(F)(F)F)cc(C(F)(F)F)c1)c1ccc2ccccc2c1 .
Solution: 83.9% (inactive)

Problem: Now consider C#Cc1cccc(Nc2ncnc3cc4c(cc23)OCCOCCOCCO4)c1 .
Solution: -26.7% (active)

Problem: Now consider O=C(CNc1nc(-c2ccc(Cl)cc2)cs1)Nc1ccc(-c2nc3ccccc3s2)cc1 .
Solution: -39.5% (active)

Problem: Now consider Cc1cc(=O)n2nnc3cc(C(F)(F)F)ccc3n12 .
Solution: 122% (inactive)

Problem: Now consider Cc1nc2oc3ccccc3c(=O)c2cc1C(=O)NCc1ccccc1 .
Solution: 89.2% (inactive)

Problem: Now consider COc1cc2c(cc1O)[C@@]1(C)[C@H](c3ccccc3Br)OC(=O)N1CC2 .
Solution: 61.1% (inactive)

Problem: Now consider C=C1C(=O)O[C@H]2[C@H]1CCC(/C=N/c1ncc(Br)cc1N)=C\CC[C@@]1(C)O[C@@H]21 .
Solution: -51% (active)

# credit: PubChem BioAssay (NCI)
